Taken from patent US11634425B2.

# ASSAY_COMMENT: in vivo
# Type: in vivo, rat (Sprague Dawley)
# MEASUREMENT_SETUP: male SD rat, 8 h, IV 1 mg/kg / PO 10 mg/kg study
Kind request: treat 800 ng/mL as inclusive, so C 8 h at 800 ng/mL or higher is Yes, anything lower is No.

The examples below pair each entry with its known result.
Cc1ccc(-c2nn3cccnc3c2C(=O)N[C@H]2N=C(c3ccccc3)c3cccc(F)c3NC2=O)cn1; Yes
O=C(N[C@H]1N=C(c2ccccc2)c2cccc(F)c2NC1=O)c1c(-c2cncc(Cl)c2)nn2cccnc12; No

Check this compound for C 8 h at or above 800 ng/mL: CCc1ccc(-c2nn3cccnc3c2C(=O)N[C@H]2N=C(c3ccccc3)c3cccc(F)c3NC2=O)c(C)n1 No

Check this compound for C 8 h at or above 800 ng/mL: CCc1ccc(-c2nn3cccnc3c2C(=O)N[C@H]2N=C(c3ccccc3)c3cccc(F)c3NC2=O)cn1 No

Check this compound for C 8 h at or above 800 ng/mL: O=C(N[C@H]1N=C(c2ccccc2)c2ccccc2NC1=O)c1c(-c2ccccc2F)nn2cccnc12 Yes
